# system: ATP-binding cassette sub-family C member 2 (Rattus norvegicus)
# Sequence (Q63120 whole entry): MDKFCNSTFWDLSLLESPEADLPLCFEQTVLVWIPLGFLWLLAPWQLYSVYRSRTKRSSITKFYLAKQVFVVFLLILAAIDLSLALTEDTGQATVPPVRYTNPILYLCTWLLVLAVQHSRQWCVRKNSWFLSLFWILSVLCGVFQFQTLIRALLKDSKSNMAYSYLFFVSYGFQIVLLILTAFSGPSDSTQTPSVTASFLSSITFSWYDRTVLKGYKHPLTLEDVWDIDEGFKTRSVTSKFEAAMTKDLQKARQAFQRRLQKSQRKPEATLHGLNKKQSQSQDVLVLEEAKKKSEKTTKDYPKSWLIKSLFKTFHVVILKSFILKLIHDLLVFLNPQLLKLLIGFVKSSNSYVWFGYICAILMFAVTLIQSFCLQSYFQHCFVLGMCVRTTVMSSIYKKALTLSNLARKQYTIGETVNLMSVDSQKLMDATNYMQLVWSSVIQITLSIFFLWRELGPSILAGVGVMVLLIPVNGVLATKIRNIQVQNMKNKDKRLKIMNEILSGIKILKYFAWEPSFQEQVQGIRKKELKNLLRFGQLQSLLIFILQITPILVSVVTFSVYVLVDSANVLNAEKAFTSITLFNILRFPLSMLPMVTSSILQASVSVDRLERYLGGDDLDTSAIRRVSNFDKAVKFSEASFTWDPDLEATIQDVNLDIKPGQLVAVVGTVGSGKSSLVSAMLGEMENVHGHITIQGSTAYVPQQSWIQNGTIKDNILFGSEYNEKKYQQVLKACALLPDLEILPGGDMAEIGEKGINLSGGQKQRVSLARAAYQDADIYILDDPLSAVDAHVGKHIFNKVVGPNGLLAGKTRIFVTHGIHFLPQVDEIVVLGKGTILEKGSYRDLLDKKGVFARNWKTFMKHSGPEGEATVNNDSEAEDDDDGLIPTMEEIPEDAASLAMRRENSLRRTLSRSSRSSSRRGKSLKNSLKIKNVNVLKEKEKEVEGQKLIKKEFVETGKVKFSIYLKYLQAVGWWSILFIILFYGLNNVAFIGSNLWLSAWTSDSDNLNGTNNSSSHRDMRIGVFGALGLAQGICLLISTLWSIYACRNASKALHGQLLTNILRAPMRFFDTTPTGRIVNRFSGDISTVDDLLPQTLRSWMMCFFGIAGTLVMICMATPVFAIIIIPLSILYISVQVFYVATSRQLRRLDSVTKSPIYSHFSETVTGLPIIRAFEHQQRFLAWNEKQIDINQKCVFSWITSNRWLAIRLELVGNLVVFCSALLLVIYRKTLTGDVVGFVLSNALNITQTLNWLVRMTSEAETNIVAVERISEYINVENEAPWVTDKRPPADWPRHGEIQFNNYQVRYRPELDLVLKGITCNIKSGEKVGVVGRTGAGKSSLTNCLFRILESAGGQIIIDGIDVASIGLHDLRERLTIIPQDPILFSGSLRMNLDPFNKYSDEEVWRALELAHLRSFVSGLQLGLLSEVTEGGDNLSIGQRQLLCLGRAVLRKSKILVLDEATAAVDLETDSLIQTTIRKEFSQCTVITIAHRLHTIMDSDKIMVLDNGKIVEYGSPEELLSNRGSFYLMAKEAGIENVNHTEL
# procedure-details: TP_TRANSPORTER: inhibition of Naf-GlcA uptake (Naf-GlcA: 0.1 uM) in bile canalicular membrane vesicles of Wistar rat
measured-quantity: IC50 (µM)

structure_as_smiles=CCCCC/C=C\C\C=C/C=C/C=C/[C@@H](SC[C@@H](NC(=O)CC[C@H](N)C(=O)O)C(=O)NCC(=O)O)[C@@H](O)CCCC(=O)O system="ATP-binding cassette sub-family C member 2 (Rattus norvegicus)" quantitative_readout=0.2
structure_as_smiles=N[C@@H](CCC(=O)N[C@H](CSc1ccc([N+](=O)[O-])cc1[N+](=O)[O-])C(=O)NCC(=O)O)C(=O)O system="ATP-binding cassette sub-family C member 2 (Rattus norvegicus)" quantitative_readout=12
